From: the supplement of paper PMC10567573

Please provide measured protein stability index for the entries that follow.
B1: SASS6 (parent)
chain: QKELQDVGQSLRIKEQEVCKLQEQ

variants of: B1; assay: protein stability index of a GFP-peptide fusion (GPS, HEK-293T) (PSI 1-6); higher = more stable; conditions: c terminus: a fixed tail appended;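 further: lentivirally expressed fusions sorted by FACS into six bins by GFP to DsRed ratio, PSI derived from sequencing read proportions per bin multiplied by bin number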

The examples below pair each entry with its known result.
# seq-text, protein stability index
data = [
    ("QKELQDVGQSQRIKEQEVCKLQEQ [L11Q]", 5.54),
    ("QKELQDWGQSLRIKEQEVCKLQEQ [V7W]", 4.64),
]

Required: protein stability index, one value per variant below.
1. QKHLQDVGQSLRIKEQEVCKLQEQ [E3H]
2. QKELQDVGQSLRIKEQEVCKLWEQ [Q22W]
3. QKELQDVGQSLRIKEQCVCKLQEQ [E17C]
4. QKEWQDVGQSLRIKEQEVCKLQEQ [L4W]
5. QKELQDVGQSLIIKEQEVCKLQEQ [R12I]
6. QKELQDVGQSLRNKEQEVCKLQEQ [I13N]

Output line:
[4.39, 4.83, 4.56, 4.82, 5.14, 5.31]

Please look at the items below and tell me protein stability index for each one, in order.
1. QKELQAVGQSLRIKEQEVCKLQEQ [D6A]
2. QKELQDHGQSLRIKEQEVCKLQEQ [V7H]
3. QKELQDVGQSLRIKEQEVCKLQEK [Q24K]
4. SKELQDVGQSLRIKEQEVCKLQEQ [Q1S]
5. QKEVQDVGQSLRIKEQEVCKLQEQ [L4V]

Output line:
[5.17, 4.72, 5.27, 4.63, 5.28]

Give measured protein stability index for every item shown.
1. QKELQDVGQSLRIKEQEVDKLQEQ [C19D]
2. QKELQDVGQSLPIKEQEVCKLQEQ [R12P]

Output line:
5.56
5.39
